Test: NCI Yeast Anticancer Drug Screen. Data for the mec2-1 strain (AID 157)
Settings: S. cerevisiae mec2-1 strain, at 5.0 µM (retest, dose inferred, filed as 0.5)
Procedure: Growth inhibition of yeast strains with defined genetic alterations is measured as a screen for potential anti-cancer activity. Selected strains with alterations in DNA damage repair or cell cycle control were exposed to compounds and growth inhibition was measured relative to vehicle treated controls. The strain used in this assay is mec2-1
The panel holds about 79,000 compounds, 15% with a hit somewhere; the sample as a whole holds those more often. Active and inactive are the calls of the source. Cut-off read from the data, not from the text of the source: active = growth inhibition above about 70%; inactive = the rest.
Possible outcomes: label 1 for active, label 0 for inactive

Compound	Group
Cc1ccc(-c2c(N)[n+]([O-])c3ccccc3[n+]2[O-])cc1	label 0
CCCCc1ccc(Nc2nc(N)c3[nH]cnc3n2)cc1	label 0
COc1cc(C2CC(C)(OC)Oc3cc4c(cc32)OCO4)cc(OC)c1O (stereo not given)	label 0
COc1cc(CCN=Cc2cc(Cl)cc(Cl)c2O)c([N+](=O)[O-])cc1OC	label 0
c1ccc([Si](C[CH2][Sn]([c]2ccccc2)([c]2ccccc2)[c]2ccccc2)(c2ccccc2)c2ccc([Si](C[CH2][Sn]([c]3ccccc3)([c]3ccccc3)[c]3ccccc3)(c3ccccc3)c3ccccc3)cc2)cc1	label 1
Oc1ccc(-c2ccccc2)cc1O	label 0
C1=c2ccccc2=C2C(=C(c3ccccc3)C(c3ccccc3)=NN2c2ccccc2)S1	label 0
CC1COC(=O)O1 (stereo not given)	label 0
C1=C(c2ccccc2)CCc2c1ccc1ccccc21	label 0
Oc1ccccc1C(Sc1nc2ccccc2s1)Sc1nc2ccccc2s1	label 0
O=S(=O)(Sc1ccccc1)c1ccccc1	label 0
O=C1O/C(=C(/Cl)c2c3ccccc3cc3ccccc23)c2ccccc21	label 0
CN(C)CCCNc1c(C#N)[n+]([O-])c2cc(Cl)ccc2[n+]1[O-]	label 1
CS(=O)(=O)C(c1nc2nnc(NC(=O)Nc3ccc(Cl)cc3)n2[nH]c1=O)c1nc2nnc(NC(=O)Nc3ccc(Cl)cc3)n2[nH]c1=O	label 0
C[C@@]12C[C@@H](Br)[C@H](Br)C[C@]1(C)O2	label 0
